experiment-description: amyloid nucleation score (Sup35N fusion, yeast selection) (log enrichment); library NNK1; higher = more nucleation; inactive = no reads after selection;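 note: zero at mode of non-aggregating sequences after 7 days selection at 30°C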
measured-quantity: amyloid nucleation score

INSERT INTO results (residue_codes, measured_quantity, measured_number) VALUES
  ('FPLGTQDRIIRFVESQYDSM', 'amyloid nucleation score', -0.516),
  ('MGGRGGTDCRASMYSSACMG', 'amyloid nucleation score', 1.74),
  ('YRVSNVNFSFATFFTHAPVR', 'amyloid nucleation score', 1.76),
  ('LIMSFVFSI', 'amyloid nucleation score', 4.57),
  ('KKVSLRLSSAVILSANSAML', 'amyloid nucleation score', -0.258),
  ('LLSLFRYN', 'amyloid nucleation score', 0.537),
  ('TFYKYVGSTISPSFGFRYVG', 'amyloid nucleation score', -0.052),
  ('DGQVSAVESMLRRWDSPVKG', 'amyloid nucleation score', 0.18),
  ('TAFFCRFPSCGGYIAYRSYV', 'amyloid nucleation score', -1),
  ('LIVNLKICAVHVGYHWGWRA', 'amyloid nucleation score', 0.653),
  ('RCSLIPGRLPRNRFVRPDYC', 'amyloid nucleation score', -1.53),
  ('GTSSRNLAFLVPWMVYMRVR', 'amyloid nucleation score', 0.635),
  ('YSRLSCWYYAPGVSLGVIKW', 'amyloid nucleation score', 0.483),
  ('PDHLTIQSCDARYGFASQL', 'amyloid nucleation score', 1.78),
  ('CLDMVWDLTVMFMF', 'amyloid nucleation score', 1.11),
  ('KWCISKSFFVYPTMMR', 'amyloid nucleation score', 0.437),
  ('LCSMWEGRGADEMLAICQGA', 'amyloid nucleation score', 0.152),
  ('SSCSPHLLFGLASVGV', 'amyloid nucleation score', 0.39),
  ('RIRNSEAGMLYTLYVTRLVD', 'amyloid nucleation score', -0.007),
  ('VFGVGGTYLFIDVEAVWGSG', 'amyloid nucleation score', 1.61),
  ('WSGFQCSQDEWNLSMTIVRA', 'amyloid nucleation score', -0.097),
  ('QLESMIYCVVSFYAAGVNFE', 'amyloid nucleation score', -0.468),
  ('HLSSTVITLVPCRLEMYLEG', 'amyloid nucleation score', 0.55),
  ('CSGYDGNSSYNGSNPVSFND', 'amyloid nucleation score', 0.056),
  ('RLFRNTPSDFTFVYTCGRDA', 'amyloid nucleation score', 0.497),
  ('KITSEPTKFYMGVCPSRSEL', 'amyloid nucleation score', -0.112),
  ('LLYPHSTSRGLIMTFYPKSG', 'amyloid nucleation score', 0.54),
  ('SMFNQRWWVSPVVYGLIVWP', 'amyloid nucleation score', 1.33);
